Molecular target: T1, HCV Core1-169 recombinant antigen (hepatitis C virus (HCV-1), UniProt P26664 1-169)
T1 sequence: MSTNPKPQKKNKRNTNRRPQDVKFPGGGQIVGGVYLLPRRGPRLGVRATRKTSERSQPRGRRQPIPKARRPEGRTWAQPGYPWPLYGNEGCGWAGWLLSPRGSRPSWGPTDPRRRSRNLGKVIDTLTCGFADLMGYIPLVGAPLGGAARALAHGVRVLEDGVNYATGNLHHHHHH
Assay: sandwich EIA, 25 ng/ml core1-169; capture mAb 208B-1096
Items are presented alongside their recorded OD492 nm.

[
  {
    "binder": "208A-207-271 monoclonal antibody (antibody, V domains shown) VH: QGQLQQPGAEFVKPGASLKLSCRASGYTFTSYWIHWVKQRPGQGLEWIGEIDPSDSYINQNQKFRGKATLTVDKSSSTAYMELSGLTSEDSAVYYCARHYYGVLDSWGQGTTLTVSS VL: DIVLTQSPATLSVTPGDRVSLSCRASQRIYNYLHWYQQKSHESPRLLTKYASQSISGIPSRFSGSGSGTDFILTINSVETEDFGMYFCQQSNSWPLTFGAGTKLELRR",
    "OD492 nm [OD492]": 0.33
  },
  {
    "binder": "208B-395-334 monoclonal antibody (antibody, V domains shown) VH: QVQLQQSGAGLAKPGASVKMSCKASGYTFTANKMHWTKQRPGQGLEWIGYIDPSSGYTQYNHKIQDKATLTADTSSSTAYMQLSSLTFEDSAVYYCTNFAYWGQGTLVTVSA VL: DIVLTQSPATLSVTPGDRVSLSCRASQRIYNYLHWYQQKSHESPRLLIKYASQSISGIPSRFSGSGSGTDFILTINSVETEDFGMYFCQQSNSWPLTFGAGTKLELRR",
    "OD492 nm [OD492]": 0.23
  },
  {
    "binder": "HCV 208B-1096 monoclonal antibody (antibody, V domains shown) VH: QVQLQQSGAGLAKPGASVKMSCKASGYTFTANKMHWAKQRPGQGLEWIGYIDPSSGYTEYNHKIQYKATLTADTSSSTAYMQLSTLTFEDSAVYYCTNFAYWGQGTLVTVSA VL: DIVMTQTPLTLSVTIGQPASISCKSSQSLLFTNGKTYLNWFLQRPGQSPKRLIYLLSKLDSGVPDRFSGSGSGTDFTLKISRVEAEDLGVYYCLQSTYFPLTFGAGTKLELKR",
    "OD492 nm [OD492]": 0.26
  },
  {
    "binder": "HCV 208A-692 monoclonal antibody (antibody, V domains shown) VH: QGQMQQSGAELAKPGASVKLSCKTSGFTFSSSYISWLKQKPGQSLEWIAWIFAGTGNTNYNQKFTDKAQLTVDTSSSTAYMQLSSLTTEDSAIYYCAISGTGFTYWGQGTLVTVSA VL: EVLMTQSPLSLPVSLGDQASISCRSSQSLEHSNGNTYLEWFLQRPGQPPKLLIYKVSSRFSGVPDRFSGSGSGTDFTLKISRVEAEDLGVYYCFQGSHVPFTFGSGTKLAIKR",
    "OD492 nm [OD492]": 0.38
  }
]
